Origin of measurements: PubChem BioAssay AID2060890

# Tested on: LG0703-F948-PDC complex spheroid viability
# assay.explanation: Anticancer human tumor LG0703-F948-PDC patient-derived lung adenocarcinoma cell line growth inhibition [RAS]; active = viability on the fitted dose curve at most 10% of control; inactive = the rest
# reported.conditions: second compound 10 µM; first compound 0.01 µM
Outcomes: True (active), False (inactive)

* CC(C)n1nc(-c2ccc3oc(N)nc3c2)c2c(N)ncnc21 + C#Cc1c(F)ccc2cc(O)cc(-c3ncc4c(N5CC6CCC(C5)N6)nc(OCC56CCCN5CC(F)C6)nc4c3F)c12 | True
* C=CC(=O)N1CCN(c2nc(OCC3CCCN3C)nc3c(F)c(-c4nc(N)cc(C)c4C(F)(F)F)c(Cl)cc23)C(C)C1 (stereo unspecified) + C#Cc1c(F)ccc2cc(O)cc(-c3ncc4c(N5CC6CCC(C5)N6)nc(OCC56CCCN5CC(F)C6)nc4c3F)c12 | False
* O=C(c1ccc(F)c(F)c1Nc1ccc(I)cc1F)N1CC(O)([C@@H]2CCCCN2)C1 + C#Cc1c(F)ccc2cc(O)cc(-c3ncc4c(N5CC6CCC(C5)N6)nc(OCC56CCCN5CC(F)C6)nc4c3F)c12 | False
* CCN1CCN(Cc2ccc(Nc3ncc(F)c(-c4cc(F)c5nc(C)n(C(C)C)c5c4)n3)nc2)CC1 + C#Cc1c(F)ccc2cc(O)cc(-c3ncc4c(N5CC6CCC(C5)N6)nc(OCC56CCCN5CC(F)C6)nc4c3F)c12 | False
* Nc1ccn(C2OC(CO)C(O)C2(F)F)c(=O)n1 (stereo unspecified) + C#Cc1c(F)ccc2cc(O)cc(-c3ncc4c(N5CC6CCC(C5)N6)nc(OCC56CCCN5CC(F)C6)nc4c3F)c12 | False
* C=CC(=O)Nc1cc(Nc2nccc(-c3cn(C)c4ccccc34)n2)c(OC)cc1N(C)CCN(C)C + C#Cc1c(F)ccc2cc(O)cc(-c3ncc4c(N5CC6CCC(C5)N6)nc(OCC56CCCN5CC(F)C6)nc4c3F)c12 | False

---

# Test system: LG0703-F948-PDC complex spheroid viability
# assay.explanation: Anticancer human tumor LG0703-F948-PDC cell line growth inhibition [RAS];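 also: spheroids exposed to agents for 7 days; 100% = DMSO vehicle wells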
# reported.conditions: second compound 0.000949 µM; first compound 0.1 µM; hits give low values
hey, just use satisfied if measured viability, T/C is less than 30%, otherwise not satisfied

- NC1c2ccccc2OC12CCN(c1cnc3c(N4CCCc5ncccc54)n[nH]c3n1)CC2 (centres undefined) + CCn1c(-c2cc(N3CCN(C)CC3)cnc2C(C)OC)c2c3cc(ccc31)-c1csc(n1)CC(NC(=O)C1CC1C)C(=O)N1CCCC(N1)C(=O)OCC(C)(C)C2: satisfied
- C=CC(=O)Nc1cc(Nc2nccc(-c3cn(C)c4ccccc34)n2)c(OC)cc1N(C)CCN(C)C + CCn1c(-c2cc(N3CCN(C)CC3)cnc2C(C)OC)c2c3cc(ccc31)-c1csc(n1)CC(NC(=O)C1CC1C)C(=O)N1CCCC(N1)C(=O)OCC(C)(C)C2: satisfied
- CCC(CC)c1cc(NC2CCC(N)C2)n2nccc2n1 (centres undefined) + CCn1c(-c2cc(N3CCN(C)CC3)cnc2C(C)OC)c2c3cc(ccc31)-c1csc(n1)CC(NC(=O)C1CC1C)C(=O)N1CCCC(N1)C(=O)OCC(C)(C)C2: not satisfied
- CC(C)n1nc(-c2ccc3oc(N)nc3c2)c2c(N)ncnc21 + CCn1c(-c2cc(N3CCN(C)CC3)cnc2C(C)OC)c2c3cc(ccc31)-c1csc(n1)CC(NC(=O)C1CC1C)C(=O)N1CCCC(N1)C(=O)OCC(C)(C)C2: satisfied
- CCN1CCN(Cc2ccc(Nc3ncc(F)c(-c4cc(F)c5nc(C)n(C(C)C)c5c4)n3)nc2)CC1 + CCn1c(-c2cc(N3CCN(C)CC3)cnc2C(C)OC)c2c3cc(ccc31)-c1csc(n1)CC(NC(=O)C1CC1C)C(=O)N1CCCC(N1)C(=O)OCC(C)(C)C2: not satisfied
- CC(Nc1ccc2c(c1)OCCn1cc(N3C(=O)OCC3C(F)F)nc1-2)C(N)=O (centres undefined) + CCn1c(-c2cccnc2C(C)OC)c2c3cc(ccc31)N1CCOC(CC(NC(=O)C(C(C)C)N(C)C(=O)C3(F)CCN(C(=O)C#CC(C)(C)N(C)C)CC3)C(=O)N3CCCC(N3)C(=O)OCC(C)(C)C2)C1: not satisfied
- Nc1ccn(C2OC(CO)C(O)C2(F)F)c(=O)n1 (centres undefined) + CCn1c(-c2cccnc2C(C)OC)c2c3cc(ccc31)N1CCOC(CC(NC(=O)C(C(C)C)N(C)C(=O)C3(F)CCN(C(=O)C#CC(C)(C)N(C)C)CC3)C(=O)N3CCCC(N3)C(=O)OCC(C)(C)C2)C1: not satisfied
- CC(C)NCC(C(=O)N1CCN(c2ncnc3c2C(C)CC3O)CC1)c1ccc(Cl)cc1 (centres undefined) + CCn1c(-c2cccnc2C(C)OC)c2c3cc(ccc31)N1CCOC(CC(NC(=O)C(C(C)C)N(C)C(=O)C3(F)CCN(C(=O)C#CC(C)(C)N(C)C)CC3)C(=O)N3CCCC(N3)C(=O)OCC(C)(C)C2)C1: not satisfied
- NC1c2ccccc2OC12CCN(c1cnc3c(N4CCCc5ncccc54)n[nH]c3n1)CC2 (centres undefined) + CCn1c(-c2cccnc2C(C)OC)c2c3cc(ccc31)N1CCOC(CC(NC(=O)C(C(C)C)N(C)C(=O)C3(F)CCN(C(=O)C#CC(C)(C)N(C)C)CC3)C(=O)N3CCCC(N3)C(=O)OCC(C)(C)C2)C1: not satisfied

---

# Tested on: LG0703-F948-PDC complex spheroid viability
# assay.explanation: Anticancer human tumor LG0703-F948-PDC cell line growth inhibition [RAS];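 also: spheroids exposed to agents for 7 days; 100% = DMSO vehicle wells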
# reported.conditions: second compound 0.316 µM; first compound 0.0316 µM; hits give low values
# maps each entry to its viability, T/C
measurement.label: viability, T/C

• CCC(CC)c1cc(NC2CCC(N)C2)n2nccc2n1 (stereo not drawn) + C#Cc1c(F)ccc2cc(O)cc(-c3ncc4c(N5CC6CCC(C5)N6)nc(OCC56CCCN5CC(F)C6)nc4c3F)c12 = 81.2%
• C=CC(=O)Nc1cc(Nc2nccc(-c3cn(C)c4ccccc34)n2)c(OC)cc1N(C)CCN(C)C + C=CC(=O)N1CCN(c2nc(OCC3CCCN3C)nc3c(F)c(-c4nc(N)cc(C)c4C(F)(F)F)c(Cl)cc23)C(C)C1 = 17.4%
• O=C(c1ccc(F)c(F)c1Nc1ccc(I)cc1F)N1CC(O)([C@@H]2CCCCN2)C1 + C#Cc1c(F)ccc2cc(O)cc(-c3ncc4c(N5CC6CCC(C5)N6)nc(OCC56CCCN5CC(F)C6)nc4c3F)c12 = 53.1%

---

# Test system: LG0703-F948-PDC complex spheroid viability
# assay.explanation: Anticancer human tumor LG0703-F948-PDC cell line growth inhibition [RAS]; active = viability on the fitted dose curve at most 10% of control; inactive = the rest;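 also: spheroids exposed to agents for 7 days; 100% = DMSO vehicle wells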
# reported.conditions: compound 3.16 µM
# Text: RAS pathway inhibitors in Combinations in Complex Spheroids A high-throughput screen of multi-cell type tumor spheroids was designed to identify active combinations of RAS pathway inhibitors and targeted small molecules. Complex spheroids include a stromal component modeled by human endothelial cells (HUVEC) and fibroblasts modeled by human mesenchymal stem cells (MSCs). […] Compounds. […] If the clinical Cmax for an agent had not been determined, the highest concentration tested was 10 microM. […]
Labels: active, inactive

- CC(C)NCC(C(=O)N1CCN(c2ncnc3c2C(C)CC3O)CC1)c1ccc(Cl)cc1 (stereo unspecified): inactive
- CC(Nc1ccc2c(c1)OCCn1cc(N3C(=O)OCC3C(F)F)nc1-2)C(N)=O (stereo unspecified): inactive
- C#Cc1c(F)ccc2cc(O)cc(-c3ncc4c(N5CC6CCC(C5)N6)nc(OCC56CCCN5CC(F)C6)nc4c3F)c12 (stereo unspecified): inactive
- NC1c2ccccc2OC12CCN(c1cnc3c(N4CCCc5ncccc54)n[nH]c3n1)CC2 (stereo unspecified): active
- C[C@@H](NC(=O)c1ncnc(N)c1Cl)c1ncc(C(=O)Nc2cc(C(F)(F)F)c(Cl)cn2)s1: inactive
- CC(=O)OC12COC1CC(O)C1(C)C(=O)C(O)C3=C(C)C(OC(=O)C(O)C(NC(=O)OC(C)(C)C)c4ccccc4)CC(O)(C(OC(=O)c4ccccc4)C21)C3(C)C (stereo unspecified): inactive

---

# System: LG0703-F948-PDC complex spheroid viability
# assay.explanation: Anticancer human tumor LG0703-F948-PDC cell line growth inhibition [RAS];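 also: spheroids exposed to agents for 7 days; 100% = DMSO vehicle wells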
# reported.conditions: second compound 0.00949 µM; first compound 3.16 µM; hits give low values
Threshold check on viability, T/C: strictly below 30% is condition met; on or above 30% is condition not met.

* CC(C)NCC(C(=O)N1CCN(c2ncnc3c2C(C)CC3O)CC1)c1ccc(Cl)cc1 (stereo not drawn) + CCn1c(-c2cc(N3CCN(C)CC3)cnc2C(C)OC)c2c3cc(ccc31)-c1csc(n1)CC(NC(=O)C1CC1C)C(=O)N1CCCC(N1)C(=O)OCC(C)(C)C2 | condition met
* CC(C)NCC(C(=O)N1CCN(c2ncnc3c2C(C)CC3O)CC1)c1ccc(Cl)cc1 (stereo not drawn) + CCn1c(-c2cccnc2C(C)OC)c2c3cc(ccc31)N1CCOC(CC(NC(=O)C(C(C)C)N(C)C(=O)C3(F)CCN(C(=O)C#CC(C)(C)N(C)C)CC3)C(=O)N3CCCC(N3)C(=O)OCC(C)(C)C2)C1 | condition not met
* NC1c2ccccc2OC12CCN(c1cnc3c(N4CCCc5ncccc54)n[nH]c3n1)CC2 (stereo not drawn) + CCn1c(-c2cc(N3CCN(C)CC3)cnc2C(C)OC)c2c3cc(ccc31)-c1csc(n1)CC(NC(=O)C1CC1C)C(=O)N1CCCC(N1)C(=O)OCC(C)(C)C2 | condition met
* CC1(O)CCCC1n1c(=O)c(C(F)F)cc2cnc(NC3CCN(S(C)(=O)=O)CC3)nc21 (stereo not drawn) + CCn1c(-c2cc(N3CCN(C)CC3)cnc2C(C)OC)c2c3cc(ccc31)-c1csc(n1)CC(NC(=O)C1CC1C)C(=O)N1CCCC(N1)C(=O)OCC(C)(C)C2 | condition not met
* CC(Nc1ccc2c(c1)OCCn1cc(N3C(=O)OCC3C(F)F)nc1-2)C(N)=O (stereo not drawn) + CCn1c(-c2cc(N3CCN(C)CC3)cnc2C(C)OC)c2c3cc(ccc31)-c1csc(n1)CC(NC(=O)C1CC1C)C(=O)N1CCCC(N1)C(=O)OCC(C)(C)C2 | condition met
* CC(Nc1ccc2c(c1)OCCn1cc(N3C(=O)OCC3C(F)F)nc1-2)C(N)=O (stereo not drawn) + CCn1c(-c2cccnc2C(C)OC)c2c3cc(ccc31)N1CCOC(CC(NC(=O)C(C(C)C)N(C)C(=O)C3(F)CCN(C(=O)C#CC(C)(C)N(C)C)CC3)C(=O)N3CCCC(N3)C(=O)OCC(C)(C)C2)C1 | condition not met
* Cc1nc(N2CCC3(CC2)COC(C)C3N)c(CO)nc1Sc1ccnc(N)c1Cl (stereo not drawn) + CCn1c(-c2cc(N3CCN(C)CC3)cnc2C(C)OC)c2c3cc(ccc31)-c1csc(n1)CC(NC(=O)C1CC1C)C(=O)N1CCCC(N1)C(=O)OCC(C)(C)C2 | condition met
* CC(=O)OC12COC1CC(O)C1(C)C(=O)C(O)C3=C(C)C(OC(=O)C(O)C(NC(=O)OC(C)(C)C)c4ccccc4)CC(O)(C(OC(=O)c4ccccc4)C21)C3(C)C (stereo not drawn) + CCn1c(-c2cccnc2C(C)OC)c2c3cc(ccc31)N1CCOC(CC(NC(=O)C(C(C)C)N(C)C(=O)C3(F)CCN(C(=O)C#CC(C)(C)N(C)C)CC3)C(=O)N3CCCC(N3)C(=O)OCC(C)(C)C2)C1 | condition not met
